Reported melting point by item:

Some molecules with recorded melting point:
Molecule | Result
N#Cc1nn(-c2c(F)c(F)c(C(F)(F)F)c(F)c2F)c(N)c1C#N | 262 to 263 °C
CCCSc1c(C)nn(-c2c(Cl)cc(C(F)(F)F)cc2Cl)c1N | 100 to 102 °C
CCS(=O)(=O)c1c(C)nn(-c2c(Cl)cc(C(F)(F)F)cc2Cl)c1N | 193 °C

Request: For the molecule CN(C)c1c([S+]([O-])C(F)(F)F)c(C#N)nn1-c1c(Cl)cc(C(F)(F)F)cc1Cl (stereo not shown) , what melting point is on record?
Response: 154 to 161 °C

Request: For the molecule Cc1nn(-c2c(Cl)cc(C(F)(F)F)cc2Cl)c(N)c1SC#N , what melting point is on record?
Response: 133.5 °C

Request: For the molecule FC(F)c1cn(-c2c(Cl)cc(C(F)(F)F)cc2Cl)nc1C(F)(F)F , what melting point is on record?
Response: 88 to 90 °C

Request: For the molecule N#Cc1c(C(F)(F)F)nn(-c2c(Cl)cc(S(=O)(=O)C(F)(F)F)cc2Cl)c1[N+](=O)[O-] , what melting point is on record?
Response: 168 to 169 °C

====

Reported melting point by item:

Some compounds with recorded melting point:
Compound | melting point
CCOC(=O)c1c(C)nn(-c2c(Cl)cc(C(F)(F)F)cc2Cl)c1N [Compound 162] | 115 to 118 °C
N#Cc1c(C(F)(F)F)nn(-c2c(Cl)c(F)c(C(F)(F)F)c(F)c2Cl)c1N [Compound 167] | 176 to 177 °C
Cc1c(C(F)(F)F)nn(-c2c(Cl)cc(C(F)(F)F)cc2Cl)c1N [Compound 236] | 97 to 100 °C
CCCOC=Nc1c(C#N)c(C)nn1-c1c(Cl)cc(C(F)(F)F)cc1Cl [Compound 119] | 77 to 79 °C
N#Cc1c(C(F)(F)F)nn(-c2c(Cl)cc(C(F)(F)F)cc2Cl)c1C(=O)O [Compound 209] | 177 to 179 °C
N#Cc1nn(-c2c(F)c(F)c(C(F)(F)F)c(F)c2Cl)c(N)c1C#N [Compound 157] | 242 to 243 °C
CC(=O)Nc1c([N+](=O)[O-])c(C(F)(F)F)nn1-c1c(Cl)cc(C(F)(F)F)cc1Cl [Compound 192] | 194 to 195 °C

Request: For the compound N#Cc1nn(-c2c(Cl)c(F)c(C(F)(F)F)c(F)c2Cl)c(N)c1C#N , what melting point is on record?
Response: 245 to 247 °C

====

Reported melting point by item:

Some compounds with recorded melting point:
Compound | melting point
CS(=O)(=O)c1cc(Cl)c(-n2nc(C(F)(F)F)c(C#N)c2N)c(Cl)c1 | 270 to 272 °C
CCCS(=O)(=O)c1c(C)nn(-c2c(Cl)cc(C(F)(F)F)cc2Cl)c1N | 145.5 to 147 °C
N#Cc1nn(-c2c(Cl)cc(C(F)(F)F)cc2Cl)c(NC(=O)C(Cl)Cl)c1C#N | 186 to 187 °C
N#Cc1c(CF)nn(-c2c(Cl)cc(C(F)(F)F)cc2Cl)c1N | 139 to 141 °C
CCC(=O)Nc1c(C#N)c(C#N)nn1-c1c(Cl)cc(C(F)(F)F)cc1Cl | 188 to 189 °C

Request: For the compound N#Cc1c(C(F)(F)F)nn(-c2c(Cl)cc(C(F)(F)F)cc2Cl)c1SC(F)(F)F , what melting point is on record?
Response: 120 to 122 °C

Request: For the compound CCOC(C)=Nc1c(C#N)c(C)nn1-c1c(Cl)cc(C(F)(F)F)cc1Cl , what melting point is on record?
Response: 50 to 53 °C

====

Value Type: melting point (°C)

Smiles Code | Scale Unit | melting point
CC(=O)c1cn(-c2c(Cl)cc(C(F)(F)F)cc2Cl)nc1C(F)(F)F | °C | 134
Cc1nn(-c2c(Cl)cc(C(F)(F)F)cc2Cl)c(N)c1SC(Cl)(Cl)Cl | °C | 156

====

Value Type: melting point

Request: For the compound N#Cc1nn(-c2c(Cl)cc([N+](=O)[O-])cc2Cl)c(N)c1C#N , what melting point is on record?
Response: 289 to 290 °C

Request: For the compound CC[S+]([O-])c1c(C)nn(-c2c(Cl)cc(C(F)(F)F)cc2Cl)c1N (centres unmarked) , what melting point is on record?
Response: 157 to 158 °C

Request: For the compound N#CSc1c(C(F)(F)F)nn(-c2c(Cl)cc(C(F)(F)F)cc2Cl)c1N , what melting point is on record?
Response: 49 to 50 °C

Request: For the compound CCNc1c(C#N)c(C#N)nn1-c1c(Cl)cc(C(F)(F)F)cc1Cl , what melting point is on record?
Response: 245 to 246 °C

Request: For the compound CC(=O)Nc1c(S(C)(=O)=O)c(C(F)(F)F)nn1-c1c(Cl)cc(C(F)(F)F)cc1Cl , what melting point is on record?
Response: 194 to 195 °C

Request: For the compound Cc1nn(-c2c(Cl)cc(OC(F)(F)F)cc2Cl)c(N)c1S(C)(=O)=O , what melting point is on record?
Response: 180 to 181 °C

Request: For the compound Cc1nn(-c2c(Cl)cc(C(F)(F)F)cc2Cl)c(N2C(=O)CCC2=O)c1C#N , what melting point is on record?
Response: 202 to 204 °C

Request: For the compound CNc1c(C#N)c(C#N)nn1-c1c(Cl)cc(C(F)(F)F)cc1Cl , what melting point is on record?
Response: 165 to 166 °C

Request: For the compound N#Cc1nn(-c2c(Cl)cc(C(F)(F)F)cc2Cl)c(N)c1SC(F)(F)C(F)Cl (centres unmarked) , what melting point is on record?
Response: 116 to 118 °C

Request: For the compound N#Cc1nn(-c2c(Cl)cc(C(F)(F)F)cc2Cl)c(Br)c1[N+](=O)[O-] , what melting point is on record?
Response: 147 to 150 °C

Request: For the compound CCOC(=O)N(C)c1c(C#N)c(C(F)(F)F)nn1-c1c(Cl)cc(C(F)(F)F)cc1Cl , what melting point is on record?
Response: 88 to 90 °C

====

Reported melting point by item:

Some compounds with recorded melting point:
Compound | Result
CCOC=Nc1c(C#N)c(C(F)(F)F)nn1-c1c(Cl)cc(C(F)(F)F)cc1Cl | 160 to 162 °C
N#Cc1nn(-c2c(Cl)cc(OC(F)(F)F)cc2Cl)c(N)c1C#N | 231 to 232 °C

Request: For the compound N#Cc1nn(-c2c(Cl)cc(C(F)(F)F)cc2Cl)c(Br)c1[S+]([O-])C(F)(F)F (stereo not drawn) , what melting point is on record?
Response: 147 to 148 °C
